tested on: Klebsiella pneumoniae; assay: Minimum inhibitory concentration (MIC) against gram negative bacteria Klebsiella pneumoniae MGH-2.; type: functional; conditions: Klebsiella pneumoniae; read-out: MIC

Molecule: O=C(O)c1cn(C2CC2)c2c(C(F)(F)F)c(N3CCNCC3)c(F)cc2c1=O
MIC [µg/mL]: 0.1
//
Molecule: NC1CCN(c2c(F)cc3c(=O)c(C(=O)O)cn(C4CC4)c3c2C(F)(F)F)C1 (stereo not drawn)
MIC [µg/mL]: 0.2
//
Molecule: NC1CCN(c2cc3c(cc2F)c(=O)c(C(=O)O)cn3C2CC2)C1 (stereo not drawn)
MIC [µg/mL]: 0.05

====

Measured MIC, listed per entry for reference.
system: Streptococcus pneumoniae; assay: Minimum inhibitory concentration (MIC) against gram positive bacteria Streptococcus pneumoniae SV-1.; assay type: functional; conditions: Streptococcus pneumoniae; read-out: MIC

Compound: CCNCC1CCN(c2c(F)cc3c(=O)c(C(=O)O)cn(C4CC4)c3c2F)C1 (stereo not drawn)
Assay System: Streptococcus pneumoniae
MIC / µg/mL: 0.025

Compound: NC1CCN(c2c(F)cc3c(=O)c(C(=O)O)cn(C4CC4)c3c2F)CC1
Assay System: Streptococcus pneumoniae
MIC / µg/mL: 0.4

Compound: NC1CCN(c2c(F)cc3c(=O)c(C(=O)O)cn(C4CC4)c3c2F)C1 (stereo not drawn)
Assay System: Streptococcus pneumoniae
MIC / µg/mL: 0.1

====

system: Streptococcus pneumoniae; assay: In vivo efficacy (orally) against Streptococcus pneumoniae SV-1 in mouse protection test; format: functional; settings: Streptococcus pneumoniae, po; read-out: PD50
Recorded ED50 by entry

Compound: O=C(O)c1cn(C2CC2)c2c(C(F)(F)F)c(N3CCNCC3)c(F)cc2c1=O
Relation Symbol: =
ED50 [mg/kg]: 75
//
Compound: CC1(CN)CCN(c2c(F)cc3c(=O)c(C(=O)O)cn(C4CC4)c3c2C(F)(F)F)C1 (stereo not given)
Relation Symbol: =
ED50 [mg/kg]: 1.1
//
Compound: NC1CCN(c2cc3c(cc2F)c(=O)c(C(=O)O)cn3C2CC2)C1 (stereo not given)
Relation Symbol: >
ED50 [mg/kg]: 100
//
Compound: NC1CCN(c2c(F)cc3c(=O)c(C(=O)O)cn(C4CC4)c3c2F)C1 (stereo not given)
Relation Symbol: =
ED50 [mg/kg]: 15
//
Compound: O=C(O)c1cn(C2CC2)c2cc(N3CCNCC3)c(F)cc2c1=O
Relation Symbol: =
ED50 [mg/kg]: 260

====

system: Streptococcus pneumoniae; assay: Minimum inhibitory concentration (MIC) against gram positive bacteria Streptococcus pneumoniae SV-1.; assay type: functional; conditions: Streptococcus pneumoniae; read-out: MIC

Molecule: C[C@@H]1CN(c2c(F)cc3c(=O)c(C(=O)O)cn(C4CC4)c3c2F)CCN1
Assay System: Streptococcus pneumoniae
Value Unit: µg/mL
MIC: 0.4
//
Molecule: NC1CCN(c2cc3c(cc2F)c(=O)c(C(=O)O)cn3C2CC2)CC1
Assay System: Streptococcus pneumoniae
Value Unit: µg/mL
MIC: 0.4
//
Molecule: C[C@@H]1CN(c2cc3c(cc2F)c(=O)c(C(=O)O)cn3C2CC2)CCN1
Assay System: Streptococcus pneumoniae
Value Unit: µg/mL
MIC: 0.2
//
Molecule: NC1CCCN(c2cc3c(cc2F)c(=O)c(C(=O)O)cn3C2CC2)C1 (stereo not given)
Assay System: Streptococcus pneumoniae
Value Unit: µg/mL
MIC: 0.2
//
Molecule: NC1CCN(c2c(F)cc3c(=O)c(C(=O)O)cn(C4CC4)c3c2C(F)(F)F)C1 (stereo not given)
Assay System: Streptococcus pneumoniae
Value Unit: µg/mL
MIC: 0.4
//
Molecule: CC1(CN)CCN(c2c(F)cc3c(=O)c(C(=O)O)cn(C4CC4)c3c2F)C1 (stereo not given)
Assay System: Streptococcus pneumoniae
Value Unit: µg/mL
MIC: 0.003
//
Molecule: NC1CCCN(c2c(F)cc3c(=O)c(C(=O)O)cn(C4CC4)c3c2F)C1 (stereo not given)
Assay System: Streptococcus pneumoniae
Value Unit: µg/mL
MIC: 0.1
//
Molecule: CC1(CN)CCN(c2c(F)cc3c(=O)c(C(=O)O)cn(C4CC4)c3c2C(F)(F)F)C1 (stereo not given)
Assay System: Streptococcus pneumoniae
Value Unit: µg/mL
MIC: 0.05
//
Molecule: O=C(O)c1cn(C2CC2)c2c(F)c(N3CCNCC3)c(F)cc2c1=O
Assay System: Streptococcus pneumoniae
Value Unit: µg/mL
MIC: 0.8
//
Molecule: O=C(O)c1cn(C2CC2)c2c(C(F)(F)F)c(N3CCNCC3)c(F)cc2c1=O
Assay System: Streptococcus pneumoniae
Value Unit: µg/mL
MIC: 0.4
//
Molecule: NC1CCN(c2cc3c(cc2F)c(=O)c(C(=O)O)cn3C2CC2)C1 (stereo not given)
Assay System: Streptococcus pneumoniae
Value Unit: µg/mL
MIC: 0.05
//
Molecule: CCn1cc(C(=O)O)c(=O)c2cc(F)c(N3CCN(C)CC3)cc21
Assay System: Streptococcus pneumoniae
Value Unit: µg/mL
MIC: 0.8
//
Molecule: CCn1cc(C(=O)O)c(=O)c2cc(F)c(N3CCNCC3)cc21
Assay System: Streptococcus pneumoniae
Value Unit: µg/mL
MIC: 1.6
//
Molecule: O=C(O)c1cn(C2CC2)c2cc(N3CCNCC3)c(F)cc2c1=O
Assay System: Streptococcus pneumoniae
Value Unit: µg/mL
MIC: 0.8
//
Molecule: CCNCC1CCN(c2cc3c(cc2F)c(=O)c(C(=O)O)cn3C2CC2)C1 (stereo not given)
Assay System: Streptococcus pneumoniae
Value Unit: µg/mL
MIC: 0.2
//
Molecule: NC1CCCN(c2c(F)cc3c(=O)c(C(=O)O)cn(C4CC4)c3c2C(F)(F)F)C1 (stereo not given)
Assay System: Streptococcus pneumoniae
Value Unit: µg/mL
MIC: 0.2
//
Molecule: CCNCC1CCN(c2c(F)cc3c(=O)c(C(=O)O)cn(C4CC4)c3c2C(F)(F)F)C1 (stereo not given)
Assay System: Streptococcus pneumoniae
Value Unit: µg/mL
MIC: 0.05
//
Molecule: C[C@@H]1CN(c2c(F)cc3c(=O)c(C(=O)O)cn(C4CC4)c3c2C(F)(F)F)CCN1
Assay System: Streptococcus pneumoniae
Value Unit: µg/mL
MIC: 0.8
//
Molecule: NC1CCN(c2c(F)cc3c(=O)c(C(=O)O)cn(C4CC4)c3c2C(F)(F)F)CC1
Assay System: Streptococcus pneumoniae
Value Unit: µg/mL
MIC: 0.2
//
Molecule: CC1(CN)CCN(c2cc3c(cc2F)c(=O)c(C(=O)O)cn3C2CC2)C1 (stereo not given)
Assay System: Streptococcus pneumoniae
Value Unit: µg/mL
MIC: 0.003

====

system: Streptococcus pneumoniae; test: In vivo efficacy (orally) against Streptococcus pneumoniae SV-1 in mouse protection test; format: functional; conditions: Streptococcus pneumoniae, po; read-out: PD50
Quantity Name: ED50 (mg/kg)

Molecule: O=C(O)c1cn(C2CC2)c2c(F)c(N3CCNCC3)c(F)cc2c1=O
Relation Symbol: =
Data Value: 59
//
Molecule: CC1(CN)CCN(c2cc3c(cc2F)c(=O)c(C(=O)O)cn3C2CC2)C1 (centres undefined)
Relation Symbol: =
Data Value: 12
//
Molecule: CCn1cc(C(=O)O)c(=O)c2cc(F)c(N3CCNCC3)cc21
Relation Symbol: >
Data Value: 100
//
Molecule: CCn1cc(C(=O)O)c(=O)c2cc(F)c(N3CCN(C)CC3)cc21
Relation Symbol: >
Data Value: 200

====

experiment: Minimum inhibitory concentration (MIC) against gram negative bacteria Prot. rettgeri M-1771.; format: functional, Providencia rettgeri; settings: Providencia rettgeri; read-out: MIC
Quantity Name: log10(MIC) (log10 of the value in µg/mL)

Compound: CC1(CN)CCN(c2c(F)cc3c(=O)c(C(=O)O)cn(C4CC4)c3c2C(F)(F)F)C1 (configuration not stated)
log10(MIC): -0.10
--
Compound: C[C@@H]1CN(c2c(F)cc3c(=O)c(C(=O)O)cn(C4CC4)c3c2F)CCN1
log10(MIC): -1.00
--
Compound: CC1(CN)CCN(c2cc3c(cc2F)c(=O)c(C(=O)O)cn3C2CC2)C1 (configuration not stated)
log10(MIC): -0.40
--
Compound: NC1CCN(c2c(F)cc3c(=O)c(C(=O)O)cn(C4CC4)c3c2C(F)(F)F)C1 (configuration not stated)
log10(MIC): -0.40
--
Compound: CC1(CN)CCN(c2c(F)cc3c(=O)c(C(=O)O)cn(C4CC4)c3c2F)C1 (configuration not stated)
log10(MIC): -1.30
--
Compound: C[C@@H]1CN(c2cc3c(cc2F)c(=O)c(C(=O)O)cn3C2CC2)CCN1
log10(MIC): -1.00
--
Compound: NC1CCCN(c2cc3c(cc2F)c(=O)c(C(=O)O)cn3C2CC2)C1 (configuration not stated)
log10(MIC): -0.10
--
Compound: NC1CCN(c2c(F)cc3c(=O)c(C(=O)O)cn(C4CC4)c3c2F)CC1
log10(MIC): -0.70
--
Compound: CCn1cc(C(=O)O)c(=O)c2cc(F)c(N3CCN(C)CC3)cc21
log10(MIC): -1.30
--
Compound: NC1CCN(c2c(F)cc3c(=O)c(C(=O)O)cn(C4CC4)c3c2C(F)(F)F)CC1
log10(MIC): -0.10
--
Compound: CCNCC1CCN(c2c(F)cc3c(=O)c(C(=O)O)cn(C4CC4)c3c2F)C1 (configuration not stated)
log10(MIC): -0.40
--
Compound: CCn1cc(C(=O)O)c(=O)c2cc(F)c(N3CCNCC3)cc21
log10(MIC): -1.60
